# measured_target: JAK2 (Homo sapiens (Human))
# Sequence (O60674 849-1124): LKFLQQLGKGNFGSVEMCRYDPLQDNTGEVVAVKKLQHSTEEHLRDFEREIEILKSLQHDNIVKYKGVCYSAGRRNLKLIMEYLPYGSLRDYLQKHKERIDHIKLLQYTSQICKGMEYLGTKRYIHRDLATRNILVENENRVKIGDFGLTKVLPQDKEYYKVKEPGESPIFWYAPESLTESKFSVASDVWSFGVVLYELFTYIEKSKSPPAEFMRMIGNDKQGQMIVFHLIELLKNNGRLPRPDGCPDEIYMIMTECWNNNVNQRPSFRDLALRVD
# experimental_protocol: Jak Biochemical HTRF Assay (JAK2)
# experimental_setup: recombinant purified GST-tagged catalytic domain, [ATP] 8.5 μM, [E] 0.052 nM
property_name: IC50 (nM)

- compound: "CCC1(n2nc(Nc3ccc(C4CCNCC4)cc3)c3c(=O)[nH]ccc32)CCN(C(=O)OC(C)(C)C)CC1 [Example 2-23]"
  property_name: "IC50"
  data_value: 1.92
- compound: "CCC1(n2nc(Nc3ccc([C@]4(C(F)(F)F)CCCN4)cc3)c3c(=O)[nH]ccc32)CCN(C(=O)OC(C)(C)C)CC1 (single isomer, unassigned) [Example 2-35]"
  property_name: "IC50"
  data_value: 3.55
- compound: "CCC1(n2nc(Nc3cccc(CC#N)c3)c3c(=O)[nH]ccc32)CCN(C(=O)OC(C)(C)C)CC1 [Example 2-17]"
  property_name: "IC50"
  data_value: 3.37
- compound: "CCC1(n2nc(Nc3ccc(C(=O)N4C[C@@H](C)O[C@@H](C)C4)c(C)c3)c3c(=O)[nH]ccc32)CCN(C(=O)OC(C)(C)C)CC1 [Example 3-4]"
  property_name: "IC50"
  data_value: 1.17

[P] CCC1(n2nc(Nc3ccc([C@@]4(C(F)(F)F)CCCN4)cc3)c3c(=O)[nH]ccc32)CCN(C(=O)OC(C)(C)C)CC1 (single isomer, unassigned) [Example 2-34]
[Q] CCC1(n2nc(Nc3ccc(C(=O)N4CCOCC(C)C4)c(C)c3)c3c(=O)[nH]ccc32)CCN(C(=O)OC(C)(C)C)CC1 (single isomer, unassigned) [Example 3-19]
Of the pair P and Q , name the member with the lesser recorded IC50. Write down the label attached to your selection.
Q
(Q: 0.89 nM, P: 2.5 nM)

====

# measured_target: JAK2 (Homo sapiens (Human))
# experimental_protocol: Jak Biochemical HTRF Assay (JAK2)
# experimental_setup: recombinant purified GST-tagged catalytic domain, [ATP] 8.5 μM, [E] 0.052 nM
property_name: IC50 (nM)

Reference set, count: 5
- compound: "CCC1(n2nc(Nc3ccc(C(=O)N4CCCOCC4)c(C)c3)c3c(=O)[nH]ccc32)CCN(C(=O)OC(C)(C)C)CC1"
  property_name: "IC50"
  data_value: 0.43
- compound: "CCC1(n2nc(Nc3ccnc(F)c3)c3c(=O)[nH]ccc32)CCN(C(=O)OC(C)(C)C)CC1"
  property_name: "IC50"
  data_value: 5.24
- compound: "CCC1(n2nc(Nc3ccc(C(=O)N4C[C@H]5C[C@@H](C4)O5)c(C)c3)c3c(=O)[nH]ccc32)CCN(C(=O)OC(C)(C)C)CC1"
  property_name: "IC50"
  data_value: 0.43
- compound: "CCC1(n2nc(Nc3ccc(C(O)C(F)(F)F)cc3)c3c(=O)[nH]ccc32)CCN(C(=O)OC(C)(C)C)CC1 (stereo not shown)"
  property_name: "IC50"
  data_value: 2.91
- compound: "CCC1(n2nc(Nc3ccc(C(=O)N4CCOC(C)(C)C4)c(C)c3)c3c(=O)[nH]ccc32)CCN(C(=O)OC(C)(C)C)CC1"
  property_name: "IC50"
  data_value: 0.75

[I] CCC1(n2nc(Nc3ccc(C(=O)N4CC5CCC(C4)O5)c(C)c3)c3c(=O)[nH]ccc32)CCN(C(=O)OC(C)(C)C)CC1
[II] CCC1(n2nc(Nc3ccc(C(=O)N4CCOC5CC54)c(C)c3)c3c(=O)[nH]ccc32)CCN(C(=O)OC(C)(C)C)CC1 (stereo not shown)
Of the pair I and II , name the member with the lesser recorded IC50. Write down the label attached to your selection.
I

[a] CCC1(n2nc(Nc3ccc(C(C)(OC)C(F)(F)F)cc3)c3c(=O)[nH]ccc32)CCN(C(=O)OC(C)(C)C)CC1 (stereo not shown)
[b] CCC1(n2nc(Nc3ccc(C4CCN(CC(F)(F)F)CC4)cc3)c3c(=O)[nH]ccc32)CCN(C(=O)OC(C)(C)C)CC1
[c] CCC1(n2nc(Nc3ccc4c(c3)CN(C3CCN(C)CC3)S4(=O)=O)c3c(=O)[nH]ccc32)CCN(C(=O)OC(C)(C)C)CC1
[d] CCC1(n2nc(Nc3ccc(C(=O)O)c(C)c3)c3c(=O)[nH]ccc32)CCN(C(=O)OC(C)(C)C)CC1
# desc sort on IC50 across 4 compounds # the answer lists labels in the order requested
b, a, d, c

Data credit: patent US10072025B2
